Test protocol: Plasma pharmacokinetics in rats after a 30-min intravenous infusion of Kang-Ai injection
Format: in vivo, Sprague–Dawley rats
Applied conditions: male, Sprague-Dawley; rat plasma; 30-min iv infusion of Kang-Ai injection 6 mL/kg; unit per footnote # for matrine and oxymatrine; read-out: Cmax
Measurement label: Cmax (µM)
Express it in µM; write the number only.

// O=C1CCC[C@@H]2[C@H]3CCCN4CCC[C@@H](CN12)[C@@H]34 : Cmax value = 15.1

---

Test protocol: Urinary (renal) excretion in rats after a 30-min infusion of Kang-Ai injection
Type: in vivo, Sprague–Dawley rats
Applied conditions: male, Sprague-Dawley, urine and plasma; rat; Kang-Ai injection 6 mL/kg iv; read-out: CLR (renal excretory clearance) (converted)
Measurement label: CL renal (mL/min)
Express it in mL/min; write the number only.

// O=C1CCC[C@@H]2[C@H]3CCCN4CCC[C@@H](CN12)[C@@H]34 [Compound A1, Matrine] : CL renal value = 0.015

// CC(C)=CCC[C@](C)(O[C@@H]1O[C@H](CO)[C@@H](O)[C@H](O)[C@H]1O)[C@H]1CC[C@]2(C)[C@@H]1[C@H](O)C[C@@H]1[C@@]3(C)CC[C@H](O)C(C)(C)[C@@H]3[C@@H](O[C@@H]3O[C@H](CO)[C@@H](O)[C@H](O)[C@H]3O[C@@H]3O[C@@H](C)[C@H](O)[C@@H](O)[C@H]3O)C[C@]12C [Compound C9, Ginsenoside Re] : CL renal value = 0.767

// CC(C)=CCC[C@](C)(O[C@@H]1O[C@H](CO[C@@H]2O[C@@H](CO)[C@H](O)[C@H]2O)[C@@H](O)[C@H](O)[C@H]1O)[C@H]1CC[C@]2(C)[C@@H]1[C@H](O)C[C@@H]1[C@@]3(C)CC[C@H](O[C@@H]4O[C@H](CO)[C@@H](O)[C@H](O)[C@H]4O[C@@H]4O[C@H](CO)[C@@H](O)[C@H](O)[C@H]4O)C(C)(C)[C@@H]3CC[C@]12C [Compound D3, Ginsenoside Rc] : CL renal value = 0.00967
